Test system: U251 CNS
Assay: NCI-60 one-dose screen, 48 h (100 = growth as untreated, 0 = no growth, -100 = all killed)
Settings: 10 µM unless noted
Experimental: Growth inhibition of the U251 human tumor cell line is measured as a screen for anti-cancer activity. Cells are grown in 96 well plates and exposed to the test compound for 48 hours. Compounds are tested at a single concentration, which is 10^-5 M for most compounds. The reported endpoint is percent growth (GI% or GIPRCNT), where numbers from 0 - 100% represent growth inhibition, and numbers from -100% - 0 represent cell death. For example, a value of 40 represents 60% growth inhibition. […]
Compounds without any hit were thinned out: in the full panel of roughly 83,000, 20% have a hit.
For each record, write down the corresponding growth.
Field format: number, assumed %, no unit text.

Entry CCOC(=O)C1=C(C)n2nc(CC#N)c(C#N)c2NC1c1ccc(CC)cc1 (stereo not given) , system U251 CNS: what growth was measured?
101

What about this compound? O=C1Nc2ccc(Cl)cc2/C1=N/c1nc(-c2ccc(F)cc2)cs1
25.4

What about this compound? COc1ccc(/C(=N\O)c2cc(C)c(OC)c(C)c2)cc1O
22.1

What about this compound? Cc1ccn2c3c(c(C(=O)O)c2c1)C(=O)c1ccccc1C3=O
74.9

What about this compound? Cc1cc(C)nc(NS(=O)(=O)c2ccc(Nc3ccc4c5c(n(CCCN(C)C)c(=O)c4c3)-c3ccccc3C5=O)cc2)n1
75.3

###

Tested on: SK-MEL-5 melanoma
Assay: NCI-60 one-dose screen, 48 h (100 = growth as untreated, 0 = no growth, -100 = all killed)
Settings: 10 µM unless noted
About 83,000 compounds went through this panel and 20% of them were active in at least one assay; those are over-represented in the sample as a whole.
Lab note: anything with growth at or over 70% counts as met; the rest go in not met.

Determine whether measured growth meets or exceeds 70% for Fc1ccc(N/N=C/c2ccc(-n3cccn3)cc2)cc1
met

What about this compound? O=C(Nc1nc2ccc(C(F)(F)F)cc2s1)c1cc(Cl)ccc1O
not met

What about this compound? CCCn1c2cc(OCc3cn(-c4ccc(Br)cc4)nn3)ccc2c2ccnc(C)c21
met

What about this compound? FC(F)(F)c1ccc2c(Nc3cccc(C4CC(c5ccccc5)=NN4c4ccc(Cl)cc4)c3)ccnc2c1 (stereo unspecified)
met

What about this compound? COc1ccc(/C=C/C(=O)/C=C(/C=C/c2ccc(OC)c(OC)c2)OB(F)F)cc1OC
not met

###

For each record, write down the corresponding growth.
Test system: SK-MEL-2 melanoma
Assay: NCI-60 one-dose screen, 48 h (100 = growth as untreated, 0 = no growth, -100 = all killed)
Details: 10 µM unless noted
Compounds without any hit were thinned out: in the full panel of roughly 83,000, 20% have a hit. Calls of active or inactive are those of the source. How the source made its calls: active means growth percent below 10; inactive means the rest.

Endpoint output: growth of C#C[C@@]1(O)[C@@H](CO)O[C@@H](n2cc(Cl)c3c(N)ccnc32)[C@@H]1O . Value?
76.9% (inactive)

What about this compound? COc1cc(/C=C/C(=O)c2ccc(NC(=O)CSc3nnc(-c4cc(OC)c(OC)c(OC)c4)n3-c3ccccc3)cc2)cc(OC)c1OC
32.1% (inactive)

What about this compound? CC(=O)O[C@@H]1C[C@]2(C)[C@H]3[C@H](O)C[C@@H]4C5=CC(C)(C)CC[C@]5(C)CC[C@@]4(C)[C@]3(C)CC[C@H]2C(C)(C)[C@H]1O
107% (inactive)

What about this compound? COc1ccc2c(c1)Oc1nc(N)c(C#N)c(N)c1C2Sc1ccc(O)cc1 (centres undefined)
87.5% (inactive)

###

For each record, write down the corresponding growth.
Test system: HCC-2998 colon
Assay: NCI-60 one-dose screen, 48 h (100 = growth as untreated, 0 = no growth, -100 = all killed)
Details: 10 µM unless noted
This is part of a sample that, as a whole, favours compounds with a hit. Of some 83,000 tested, about 20% had one in any assay.
Field format: number, assumed %, no unit text.

Endpoint output: growth of COc1cc(/C=C/CO)cc(OC)c1O[C@@H]1O[C@H](CO)[C@@H](O)[C@H](O)[C@H]1O . Value?
102

What about this compound? COc1ccc(Nc2cc(NC(=O)CNc3cc(OC)c(Cl)c(OC)c3Cl)ncn2)cc1
95.5

What about this compound? Cc1c(Cl)cccc1NC(=O)c1sc2nc3c(cc2c1N)CCCCC3
55.7

What about this compound? COc1cc(-c2csc(NC(=O)Nc3cc(Cl)cc(Cl)c3)n2)cc(OC)c1OC
70.8

What about this compound? O=C1C(=O)c2c(nc3ccc(C(F)(F)F)cn23)-c2ccccc21
-90.4

###

System: SF-295 CNS
Experiment: NCI-60 one-dose screen, 48 h (100 = growth as untreated, 0 = no growth, -100 = all killed)
Conditions: 10 µM unless noted
This is part of a sample that, as a whole, favours compounds with a hit. Of some 83,000 tested, about 20% had one in any assay.
Measure: growth (%)
Field format: number, assumed %, no unit text.

Endpoint output: growth of Nc1c(C(=O)Nc2ccccc2Cl)sc2nc3c(cc12)CN(Cc1ccccc1)CC3 . Value?
100

What about this molecule? c1ccc(Sc2ncccn2)nc1
109

What about this molecule? COc1ccc(NC(=O)c2sc3nc(C)c(C(C)=O)cc3c2N)cc1
97.7

What about this molecule? COc1ccc2[nH]c(=O)c(/C=C/C(=O)/C=C/c3ccc(O)c(OC)c3)cc2c1
17.5

What about this molecule? CCc1n(Cc2ccc3ccccc3c2)c2ccccc2[n+]1Cc1ccc2ccccc2c1
93.3

What about this molecule? Cc1ccc(-c2nc(C#N)c(S(=O)(=O)N(C)CCO)o2)cc1
104

What about this molecule? C#C[C@@]1(O)[C@@H](CO)O[C@@H](n2cc(-c3ccco3)c3c(N)ncnc32)[C@@H]1O
76.9

What about this molecule? Nc1c(C(=O)c2ccccc2)sc2nc(-c3cc4ccccc4o3)cc(-c3ccc(Cl)cc3)c12
129

What about this molecule? c1ccc(-c2n(Cc3ccc4ccccc4n3)cc[n+]2Cc2ccc3ccccc3n2)cc1
67.8

What about this molecule? COc1ccc(/C=C/C(=O)/C=C(/C=C/c2ccc(OC)c(OC)c2)OB(F)F)cc1OC
69.4

What about this molecule? CC(C)C1=C[C@@]23CC[C@H]4[C@](C)(COCCC#N)CCC[C@]4(C)[C@H]2C[C@@H]1[C@@H]1[C@H]3[C@@H](OCCC#N)CC[C@@H]1OCCC#N
28.7

What about this molecule? N#CCNc1ccc(C(=O)O)cc1
104

What about this molecule? NC(=N\N=C\c1ccccc1O)/C(N)=N/N=C/c1ccccc1O
77.7

What about this molecule? O=CN1N=C(c2ccc(Cl)cc2)CC1c1cccc(Nc2ccnc3cc(C(F)(F)F)ccc23)c1 (stereo unspecified)
51.4

What about this molecule? O=c1c2ccccc2oc2ccc(OCCCCCN3CCCCCC3)cc12
87.8

What about this molecule? Cc1nc(C)c(C)nc1C
107

What about this molecule? CCOC(=O)C1=C(C)n2nc(CC#N)c(C#N)c2NC1c1ccc(Cl)cc1 (stereo unspecified)
102

What about this molecule? O=C(/C(=C\c1c(-c2ccccc2)[nH]c2ccccc12)S(=O)(=O)c1ccccc1)c1ccccc1
-6.63

What about this molecule? CC(C)NS(=O)(=O)c1cccc(-c2ccc3c(=O)n(CCCN)c4c(c3c2)C(=O)c2ccccc2-4)c1
104

What about this molecule? CCOCc1nc2ccccc2c(=O)[nH]1
99.6

What about this molecule? C#C[C@@]1(O)[C@@H](CO)O[C@@H](n2cc(Br)c3c(N)ncnc32)[C@@H]1O
2.42

What about this molecule? O=C(NCc1ccccc1)c1ccc2c(c1)NC(=O)[C@@H]1CCCN21
98.7

What about this molecule? COC(=O)c1nc(-c2ccccc2)oc1S(=O)(=O)n1nc(-c2ccccc2)cc1N
97.5

What about this molecule? COc1ccc(-n2cc(COc3ccc4c5ccnc(C)c5n(CC(C)C)c4c3)nn2)cc1
60.6

What about this molecule? CCCNc1nc(C)[nH]c(=O)c1S
119

What about this molecule? O=C(Nc1ccc(N=Cc2ccccc2O)cc1)NC1C=c2ccccc2=CC1 (stereo unspecified)
102

What about this molecule? C#Cc1cccc(Nc2ncnc3ccc(NC(=O)c4ccccc4)cc23)c1
89.7

What about this molecule? COc1ccc(C(=O)c2cc(OC)c(C)c(OC)c2)cc1OC(=O)CCl
17.6

What about this molecule? O=CN1N=C(c2ccc3c(c2)OCO3)CC1c1cccc(Nc2ccnc3cc(C(F)(F)F)ccc23)c1 (stereo unspecified)
83.1

What about this molecule? C#CCN(CCCOc1ccc(Cl)cc1Cl)CCCSC(=O)CCCCCN1/C(=C\C=C2/CCCC(/C=C/C3=[N+](CCCCCC(=O)[O-])c4ccccc4C3(C)C)=C2Cl)C(C)(C)c2ccccc21
53.3

What about this molecule? CCOC(=O)C1CCN(S(=O)(=O)/N=C2/NC(=O)NC2=C(Cl)Cl)CC1
17.4

What about this molecule? CC(C)(C)c1ccc2oc(=O)n(SC(Cl)(Cl)Cl)c2c1
97.1

What about this molecule? O=C(Nc1cccc(-c2cccc(F)c2)c1)C1CCN(Cc2cccc3cccnc23)CC1
56.1

What about this molecule? CCOCCc1c(O)nc(SC)[nH]c1=O
113

What about this molecule? Nc1c(C(=O)Nc2ccccn2)sc2nc3c(cc12)CCCCC3
15.4

What about this molecule? CC[C@H](Nc1ncnc2nc[nH]c12)c1nc2cccc(CC(=O)c3ccc(C(=O)NO)cc3)c2c(=O)n1-c1ccccc1
97.9

What about this molecule? Oc1c(CCl)cc(Cl)cc1Cc1cc(Cl)cc(Cc2cc(Cl)cc(CCl)c2O)c1O
62.7

What about this molecule? CCC[S@](=O)c1ccc2nc(NC(=O)OC)[nH]c2c1
99.9

What about this molecule? O=C(Nc1ccc2ncnc(Nc3ccc(F)c(Cl)c3)c2c1)c1ccccc1
82

What about this molecule? CC(=O)Nc1c(C(=O)Nc2ccccc2)sc2nc3c(cc12)C(OC(C)=O)CCC3 (stereo unspecified)
32.4

What about this molecule? C[C@]12CC[C@@H]3c4ccc(O)cc4CC[C@H]3[C@@H]1C[C@H](O)C2
87.3
